Target: PfTyrRS (Plasmodium falciparum, UniProt Q8IAR7)
Sequence (Q8IAR7 entry or part of it): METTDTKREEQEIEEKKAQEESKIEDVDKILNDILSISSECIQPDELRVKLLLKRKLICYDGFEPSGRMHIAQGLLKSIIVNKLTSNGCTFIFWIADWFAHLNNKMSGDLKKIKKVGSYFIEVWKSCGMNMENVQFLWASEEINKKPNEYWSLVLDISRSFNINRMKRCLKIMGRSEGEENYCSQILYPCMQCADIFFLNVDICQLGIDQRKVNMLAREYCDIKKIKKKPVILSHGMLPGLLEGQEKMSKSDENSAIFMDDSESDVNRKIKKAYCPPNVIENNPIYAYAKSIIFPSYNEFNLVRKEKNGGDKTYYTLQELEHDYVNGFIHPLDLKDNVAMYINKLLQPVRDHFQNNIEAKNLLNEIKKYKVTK
Test: Differential scanning fluorimetry (DSF) of PfTyrRS
Assay type: binding
measure: Kd

(Q) Hi! What's the reported Kd for Nc1ncnc2c1ncn2[C@@H]1O[C@H](COS(N)(=O)=O)[C@@H](O)[C@H]1O [AMS, adenosine 5’-monosulfamate, reference compound] on PfTyrRS (Plasmodium falciparum, UniProt Q8IAR7)?
(A) 1.3 nM

---

Test: Rat pharmacokinetics
Format: in vivo, Sprague-Dawley rats
Settings: male, Sprague-Dawley, whole blood, PO 10 mg/kg, blood
measure: Cmax (nM)
# value in nM; strip the unit string

(Q) // lookup Cmax for CC(C)c1nn([C@@H]2O[C@H](COS(N)(=O)=O)[C@@H](O)[C@H]2O)c2ncnc(N)c12 [ML471]
(A) 261
